target: kinase enzymes (Homo sapiens, UniProt P42336)
Sequence (P42336 whole entry): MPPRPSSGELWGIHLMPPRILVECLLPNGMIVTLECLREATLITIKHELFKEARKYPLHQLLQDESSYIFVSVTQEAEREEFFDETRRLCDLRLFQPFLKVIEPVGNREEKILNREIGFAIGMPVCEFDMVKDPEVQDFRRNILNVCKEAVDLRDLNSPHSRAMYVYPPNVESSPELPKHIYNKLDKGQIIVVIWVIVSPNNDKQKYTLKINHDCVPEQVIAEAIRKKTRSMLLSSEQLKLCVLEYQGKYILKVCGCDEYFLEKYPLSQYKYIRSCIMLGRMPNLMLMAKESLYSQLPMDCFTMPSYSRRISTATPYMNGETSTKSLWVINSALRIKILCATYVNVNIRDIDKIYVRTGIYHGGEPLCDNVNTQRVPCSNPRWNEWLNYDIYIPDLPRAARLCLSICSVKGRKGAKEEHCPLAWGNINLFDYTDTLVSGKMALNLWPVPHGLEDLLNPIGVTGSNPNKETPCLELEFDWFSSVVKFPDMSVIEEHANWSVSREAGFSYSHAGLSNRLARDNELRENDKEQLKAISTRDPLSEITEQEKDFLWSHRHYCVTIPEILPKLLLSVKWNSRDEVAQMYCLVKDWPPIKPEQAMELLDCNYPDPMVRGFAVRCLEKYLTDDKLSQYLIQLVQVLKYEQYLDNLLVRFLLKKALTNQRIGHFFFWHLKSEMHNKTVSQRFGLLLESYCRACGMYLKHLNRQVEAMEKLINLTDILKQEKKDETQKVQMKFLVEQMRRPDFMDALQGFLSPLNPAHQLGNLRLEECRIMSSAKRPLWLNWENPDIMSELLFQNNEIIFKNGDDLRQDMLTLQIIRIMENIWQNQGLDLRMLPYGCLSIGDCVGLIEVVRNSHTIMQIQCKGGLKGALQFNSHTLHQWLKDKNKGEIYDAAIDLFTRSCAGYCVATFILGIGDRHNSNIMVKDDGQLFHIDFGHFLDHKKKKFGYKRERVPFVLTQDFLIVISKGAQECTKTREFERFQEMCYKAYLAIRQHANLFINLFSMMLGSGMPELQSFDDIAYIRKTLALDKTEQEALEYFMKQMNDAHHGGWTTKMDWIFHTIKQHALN
Property measured: pKd
Quick note: pKd values are minus log10 of concentrations in mol/L.

So what does the record say about pKd for COC(=O)c1cc(C2CCCN2c2cc(F)cc(F)c2)c2nc(N3CCOCC3)cnc2c1 (single isomer, unassigned) ? 6.10

And for C[C@@H](Nc1cc(F)cc(F)c1)c1cc(C(=O)NCCN(C)C)cc2ncc(N3CCOCC3)nc12 [Compound 184c] ? 6.08

Follow-up entry: CC(Oc1cccc(F)c1)c1cc(C(=O)NCCO)cc2ncc(N3CCOCC3)nc12 (single isomer, unassigned) [Compound 334b] 4.67

Entry to check: `O=C(NCCO)c1cc(NCc2cccc(F)c2)c2nc(N3CCOCC3)cnc2c1` 5.15

And then CC(Nc1ccc(F)c(F)c1)c1cc(C(=O)NCCN(C)C)cc2ncc(N3CCOCC3)nc12 (single isomer, unassigned) [Compound 281b] , what is it? 5.21

Another molecule to check: `Cc1c(CNc2cc(C(=O)NCCO)cc3ncc(N4CCOCC4)nc23)cccc1C(F)(F)F` 4.77

// query: CC(Nc1cc(F)cc(F)c1)c1cc(C(=O)N(C)CCN(C)C)cc2ncc(N3CCOCC3)nc12 (single isomer, unassigned) 6.90

Okay, and CN[C@H]1CCN(C(=O)c2cc(C(C)Oc3ccc(F)c(F)c3)c3nc(N4CCOCC4)cnc3c2)C1 (single isomer, unassigned) [Compound 370a] ? 5.91

----------
biological target: kinase enzymes (Homo sapiens)
Measured pKd, listed per entry.
Units for pKd: none; it is -log10 of a concentration expressed in mol/L.

Consider the reported pKd for these molecules:
Molecule: CN[C@H]1CCN(C(=O)c2cc(C(C)Oc3cc(F)c(F)c(F)c3)c3nc(N4CCOCC4)cnc3c2)C1 (single isomer, unassigned) [Compound 405b]
pKd: 5.33

Molecule: CN[C@@H]1CCN(C(=O)c2cc(C(C)Nc3ccc(F)c(F)c3)c3nc(N4CCOCC4)cnc3c2)C1 (single isomer, unassigned) [Compound 371b]
pKd: 4.96

Molecule: Fc1cc(F)cc(N2CCCC2c2cncc3ncc(N4CCOCC4)nc23)c1 (single isomer, unassigned)
pKd: 4.89

Molecule: CN(C)C(=O)c1cc(C2CCCN2c2cc(F)cc(F)c2)c2nc(N3CCOCC3)cnc2c1 (stereo not drawn)
pKd: 5.88

Form field: reported pKd of [2H]C([2H])(O)C([2H])([2H])NC(=O)c1cc(C(C)Nc2cccc(F)c2)c2nc(N3CCOCC3)cnc2c1 (single isomer, unassigned) [Compound 408a] 5.37

----------
biological target: kinase enzymes (Homo sapiens, UniProt P42345)
Property measured: Kd

The examples below pair each entry with its known result.
Compound: COC(=O)[C@@H]1CCCN1C(=O)c1cc(C(C)Nc2cc(F)cc(F)c2)c2nc(N3CCOCC3)cnc2c1 (stereo partly drawn)
Kd: > 30.2 µM
//
Compound: CC(Oc1cc(F)c(F)c(F)c1)c1cc(C(=O)N(C)C2CCNC2)cc2ncc(N3CCOCC3)nc12 (single isomer, unassigned) [Compound 404a]
Kd: > 30.2 µM

Let's switch to this compound now.
Recorded Kd for CC(Oc1cc(F)cc(F)c1)c1cc(C(=O)N2CCOCC2)cc2ncc(N3CCO[C@H](C)C3)nc12 (mixture of isomers) with kinase enzymes (Homo sapiens, UniProt P42345), please? > 30.2 µM

----------
Documented log10 of Kd across a set of compounds
target: PI3Kβ (Homo sapiens); construct: purchased DiscoveRx Corporation, San Diego (contract service, KINOMEscan); test: Enzyme binding assay (KINOMEscan, DiscoveRx); details: PIK3Cβ_h, read-out: Kd PIK3Cβ_h
Scale: log10; quantity: Kd; unit before log: nM

Examples with answers:
Compound: CN[C@H]1CCN(C(=O)c2cc(C(C)Nc3cc(F)c(F)c(F)c3)c3nc(N4CCOCC4)cnc3c2)C1 (stereo partly drawn) [Compound 297]
log10 of Kd: -0.52
//
Compound: CC(Nc1cc(F)cc(F)c1)c1cc(C(=O)N(C)C)cc2ncc(C3=CCOCC3)nc12 (single isomer, unassigned) [Compound 159]
log10 of Kd: 2.04
//
Compound: CC(C)NCCNC(=O)c1cc(C(C)Oc2ccc(F)c(F)c2)c2nc(N3CCOCC3)cnc2c1 (racemic) [Compound 286]
log10 of Kd: 1.26
//
Compound: CC(Nc1cc(F)cc(F)c1)c1cc(C(=O)NC[C@@H](C)O)cc2ncc(N3CCOCC3)nc12 (single isomer, unassigned) [Compound 202]
log10 of Kd: 3.60
//
Compound: CC(Nc1cc(F)c(F)c(F)c1)c1cc(C(=O)NCC(C)(C)O)cc2ncc(N3CCOCC3)nc12 (single isomer, unassigned) [Compound 292b]
log10 of Kd: 4.17

We next turn to a different compound, shown below.
Would you kindly share the measured log10 of Kd for CNCCNC(=O)c1cc(C(C)Oc2ccc(F)c(F)c2)c2nc(N3CCOCC3)cnc2c1 (single isomer, unassigned) [Compound 344b] ? 2.22

----------
For reference, Kd measured on kinase enzymes (Homo sapiens):

Compound: CC(Nc1cc(F)cc(F)c1)c1cc(C(=O)N2CCNC(C(F)(F)F)C2)cc2ncc(N3CCOCC3)nc12 (single isomer, unassigned) [Compound 237b]
Kd: > 30.2 µM
--
Compound: CC(Nc1ccc(F)c(F)c1)c1cc(C(=O)N2CCC[C@H](O)C2)cc2ncc(N3CCOCC3)nc12 (single isomer, unassigned) [Compound 302b]
Kd: > 30.2 µM

Please turn your attention to the following entry.
Given CC(Nc1cc(F)c(F)c(F)c1)c1cc(C(=O)NC[C@@H](C)O)cc2ncc(N3CCOCC3)nc12 (single isomer, unassigned) [Compound 284a] , state its recorded Kd. 19.1 µM

----------
target: PI3Kβ (Homo sapiens, UniProt P42338); construct: purchased DiscoveRx Corporation, San Diego (contract service, KINOMEscan); assay: Enzyme binding assay (KINOMEscan, DiscoveRx); settings: PIK3Cβ_h, read-out: Kd PIK3Cβ_h
Sequence (P42338 whole entry): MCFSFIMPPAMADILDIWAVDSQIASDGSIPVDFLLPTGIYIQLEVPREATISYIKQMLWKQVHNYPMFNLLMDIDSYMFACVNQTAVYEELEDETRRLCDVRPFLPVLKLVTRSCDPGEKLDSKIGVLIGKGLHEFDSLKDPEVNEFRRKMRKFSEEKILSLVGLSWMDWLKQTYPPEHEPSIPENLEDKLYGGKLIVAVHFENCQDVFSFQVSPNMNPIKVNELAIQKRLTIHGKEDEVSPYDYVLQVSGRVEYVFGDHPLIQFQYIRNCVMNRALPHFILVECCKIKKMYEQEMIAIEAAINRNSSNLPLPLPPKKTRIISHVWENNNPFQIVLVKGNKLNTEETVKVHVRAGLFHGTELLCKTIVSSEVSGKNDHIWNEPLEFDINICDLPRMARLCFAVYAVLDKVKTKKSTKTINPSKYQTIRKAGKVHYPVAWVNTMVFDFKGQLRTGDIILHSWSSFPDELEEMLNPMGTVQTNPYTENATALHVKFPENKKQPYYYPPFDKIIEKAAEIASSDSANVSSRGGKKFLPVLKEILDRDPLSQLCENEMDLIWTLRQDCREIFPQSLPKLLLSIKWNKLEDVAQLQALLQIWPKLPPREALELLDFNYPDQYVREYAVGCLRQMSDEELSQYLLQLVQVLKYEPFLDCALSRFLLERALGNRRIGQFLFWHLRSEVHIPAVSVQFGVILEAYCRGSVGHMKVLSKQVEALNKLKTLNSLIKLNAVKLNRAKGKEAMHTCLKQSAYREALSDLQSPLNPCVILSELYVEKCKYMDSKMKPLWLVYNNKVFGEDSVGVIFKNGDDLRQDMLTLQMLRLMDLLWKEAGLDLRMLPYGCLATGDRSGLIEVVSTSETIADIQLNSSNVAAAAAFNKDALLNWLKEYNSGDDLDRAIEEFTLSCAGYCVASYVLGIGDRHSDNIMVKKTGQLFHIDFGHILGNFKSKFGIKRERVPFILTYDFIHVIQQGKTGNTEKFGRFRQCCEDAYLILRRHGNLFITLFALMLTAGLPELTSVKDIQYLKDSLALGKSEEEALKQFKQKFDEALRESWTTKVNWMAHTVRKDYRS
This listing pairs molecules with measured Kd.
I only need the number, in nM, no unit after it.

Molecule: COCCNCc1cc(C2CCCN2c2cc(F)cc(F)c2)c2nc(N3CCOCC3)cnc2c1 (centres unmarked)
Kd (nM): 3

Molecule: CC(Nc1ccc(F)c(F)c1)c1cc(C(=O)N2CCN3CCC[C@H]3C2)cc2ncc(N3CCOCC3)nc12 (single isomer, unassigned) [Compound 287a]
Kd (nM): 3

Molecule: CC(Nc1ccc(F)c(F)c1)c1cc(C(=O)N2CC[C@@H](O)C2)cc2ncc(N3CCOCC3)nc12 (single isomer, unassigned) [Compound 300a]
Kd (nM): 2

Molecule: CC(C)NCCNC(=O)c1cc(C(C)Nc2ccc(F)c(F)c2)c2nc(N3CCOCC3)cnc2c1 (centres unmarked) [Compound 364]
Kd (nM): 5

Molecule: CC(Nc1cc(F)cc(F)c1)c1cc(C2=NC(C)(C)CO2)cc2ncc(N3CCOCC3)nc12 (centres unmarked) [Compound 186]
Kd (nM): 10

Molecule: CC(Nc1cc(F)cc(F)c1)c1cc(C(=O)N(C)C)cc2ncc(N3CCOCC3)nc12 (centres unmarked) [Compound 11]
Kd (nM): 1

Molecule: CN(Cc1cc(F)cc(F)c1)c1cc(C(=O)N2CCNC(C(F)(F)F)C2)cc2ncc(N3CCOCC3)nc12 (single isomer, unassigned) [Compound 319a]
Kd (nM): 200

Molecule: CC(Nc1cc(F)c(F)c(F)c1)c1cc(C(=O)N2CCCN(C(C)C)CC2)cc2ncc(N3CCOCC3)nc12 (single isomer, unassigned) [Compound 388b]
Kd (nM): 3

Molecule: CC(Oc1cccc(F)c1)c1cc(C(=O)N(C)C)cc2ncc(N3CCOCC3)nc12 (centres unmarked) [Compound 68]
Kd (nM): 3

Molecule: CC(Nc1cc(F)cc(F)c1)c1cc(C2=NC(C)(C)CO2)cc2ncc(N3CCOCC3)nc12 (single isomer, unassigned) [Compound 187]
Kd (nM): 1050

Consider the molecule shown here: `CC(C)N1CCCN(C(=O)c2cc(N(C)Cc3cc(F)cc(F)c3)c3nc(N4CCOCC4)cnc3c2)CC1` What is its recorded Kd? 158

Likewise for CC(Nc1cc(Cl)cc(Cl)c1)c1cc(C(=O)N2CCOCC2)cc2ncc(N3CCOCC3)nc12 (centres unmarked) ? 3

Now try CC(Oc1cc(F)cc(F)c1)c1cc(C(=O)N(C)CCO)cc2ncc(N3CCOCC3)nc12 (single isomer, unassigned) [Compound 61] . 2

Could you do the same for CNCCNC(=O)c1cc(C(C)Oc2cc(F)cc(F)c2)c2nc(N3CCOCC3)cnc2c1 (single isomer, unassigned) [Compound 165] , please? 0.3

----------
Form field: pIC50 (one value per entry).
tested on: Akt phosphorylated at Ser473 in PC-3 cells; assay: Cellular assay: phosphorylation of Akt at Ser473 in PC-3 cells (MSD ELISA); format: cell-based; conditions: PC-3 cells, 60 min compound incubation, MSD ELISA; read-out: IC50 pAkt_S473
pIC50: −log10 of the molar value.

Molecule: CC(Nc1cc(F)cc(F)c1)c1cc(C(=O)N2CCNC(C(F)(F)F)C2)cc2ncc(N3CCOCC3)nc12 (single isomer, unassigned) [Compound 237d]
System under test: Akt phosphorylated at Ser473 in PC-3 cells
Property measured: pIC50
Result: < 6.29
--
Molecule: COC(=O)c1cc(C(C)Nc2cc(F)cc(Cl)c2)c2nc(N3CCOCC3)cnc2c1 (stereo not shown)
System under test: Akt phosphorylated at Ser473 in PC-3 cells
Property measured: pIC50
Result: < 6.29

pIC50 for CNCCNC(=O)c1cc(C(C)Oc2ccc(F)c(F)c2)c2nc(N3CCOCC3)cnc2c1 (single isomer, unassigned) [Compound 344a] ? < 6.99

Now consider CNCCNC(=O)c1cc([C@@H](C)Oc2cccc(F)c2)c2nc(N3CCOCC3)cnc2c1 [Compound 122] and answer again. 7.40

Now the same for CC(Nc1ccc(F)c(F)c1)c1cc(C(=O)NCCN(C)C)cc2ncc(N3CCOCC3)nc12 (single isomer, unassigned) [Compound 281b] < 6.29
